- tested-system: IL-6 (UniProt P05231 30-212)
- Sequence (P05231 30-212): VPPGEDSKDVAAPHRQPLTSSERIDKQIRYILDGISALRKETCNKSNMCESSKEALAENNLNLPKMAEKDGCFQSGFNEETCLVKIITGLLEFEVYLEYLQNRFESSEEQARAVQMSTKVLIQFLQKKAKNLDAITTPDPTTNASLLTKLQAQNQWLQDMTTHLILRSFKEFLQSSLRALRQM
- experiment-summary: graphene FET (Hill-Langmuir fit); 2000 Da PEG, PBS; 1x PBS, artificial sweat (10x diluted or undiluted) or undiluted lavage fluid; aptamer immobilized on graphene; pH and temperature not stated
- setup-conditions: protein: commercial
result-type: pKd
Numbers only, as −log10 of the molar value.

Fill in the blank: the reported pKd of GGTGGCAGGAGGACTATTTATTTGCTTTTCT (ssDNA, 5'-NH2) [IL-6 aptamer] is ____. 9.73
